- method-description: folding stability dG unfold from trypsin proteolysis; higher = more stable
Could you label it Yes if measured folding stability dG unfold is 3 kcal/mol or higher, and No otherwise?

Quick check, folding stability dG unfold >= 3 kcal/mol? SAGGSAGGSMTRTITLSKEELKKKYPNATLEEIAKDIIEKEPGVKEVTVEEFPGTVKITVTKLSAGGSAGGS [r12_590_JUSTAS]
No

Next:
Quick check, folding stability dG unfold >= 3 kcal/mol? SAMIIVAMAPDRMLIIGPDGRVLVVDDPEKAIELIKELFPVPIIVIPVPEDSPVFRELLERLERERTGESAG [r14_235_TrMRF]
No

Quick check, folding stability dG unfold >= 3 kcal/mol? SAGGKTLTIEVNGKKYKITVEKNENGELTLTIYEYDKKTKKWKKIKTIKLKNMSLEEVLKLLKKLPPSAGGS [r16_378_TrROS_Hall]
Yes
